# System: MS2 coat protein
# assay_comment: apparent KD of MS2 coat protein; designed switch direction (-1 OFF switch, 1 ON switch): -1; higher = weaker reporter binding
# condition_notes: input ligand: FMN 200 uM
Could you please report measured apparent KD of MS2 coat protein for the items listed next?
All answers are understood in nM, so give the number only.

Req: Item under review: UUUUUUGUUGUGAGGAUAUCGUUGUUGUUGUGGAUCGAGAAGGCACAUGAGGAUCACCCAUGUUUGUUGUGGUU [JR_BMOE4_Sub086] (Eterna round: R96, puzzle: Brourd's mod of Exclusion 4) . Reported apparent KD of MS2 coat protein?
Resp: 272

Req: Item under review: UAUUUGCAAGCGAGAUCCCACAUGAGGAUCACCCAUGUGCUCGUCUUAUAAGGUACUGUGACGAUAGUCACGGUACC [Mat - Sensor, turn-off var - Eli Mod - D89] (Eterna round: R97, puzzle: Sensor, turn-off variant 1) . Reported apparent KD of MS2 coat protein?
Resp: 14

Req: Item under review: AAUAACAAGUUGAUCCUACACAUGAGGAUCACCCAUGUGCUCGUCUUGUCAAGUACUAUCACGAAAGUGUUAGUUCA [Mod-Hyphema] (Eterna round: R97, puzzle: Sensor, turn-off variant 1) . Reported apparent KD of MS2 coat protein?
Resp: 74.7

====

# System: K4 kissing-loop RNA reporter
# assay_comment: apparent KD of K4 kissing-loop reporter; higher = weaker reporter binding
# condition_notes: Eterna round: R107; input ligand: none
Threshold rule: apparent KD of K4 kissing-loop reporter greater than or equal to 300 nM is 1 (yes); below that, 0 (no).

Req: For this sequence, is measured apparent KD of K4 kissing-loop reporter 300 nM or higher? `CGAUGGAUGGCAGGAUAUAGACAUUGAGUGAUGUUCGAUGAUUAUCCAUAUUCCCGUCACCUAUGACUAGAAGGGCCAUCCAUCG`
Resp: 1 (yes)

Req: For this sequence, is measured apparent KD of K4 kissing-loop reporter 300 nM or higher? UCCGUUGCGGCGGCCGCCACUGACUUAUUGAUUAGGUUGCCAGUGAUGUUGGCCACCGGUCAAUACAGGACCGGGCCAUAGCGGG [Retive]
Resp: 0 (no)

Req: For this sequence, is measured apparent KD of K4 kissing-loop reporter 300 nM or higher? UGCAUCGUUGGCAGGCGCACCACACAGUGUAAGGAUAUGAUGUCGUUCAGAAGGUACGCUUGACCGAGUGAUGUUCGGGAGUGCC [theeternabot_sameState_KL_FMN_A_9]
Resp: 0 (no)

Req: For this sequence, is measured apparent KD of K4 kissing-loop reporter 300 nM or higher? AAUUCCUGUUAUGAUACCAGAAAUCACAGCAACCUGCCUACCUAGUGAUGUUAGGAGAAUUUCCCUUGGCAGCAUCGACUGAAGG [theeternabot_sameState_KL_Theo_B_38]
Resp: 0 (no)

Req: For this sequence, is measured apparent KD of K4 kissing-loop reporter 300 nM or higher? UUAGCAGUAUACUGCAAGACCUAUACUGAUACCAGAGCCUAUAGGCUCCCUUGGCAGCGGAUCGAGUGAUGUUCGUAAGGUCAUU [AK4.3 SS Theophylline A]
Resp: 1 (yes)

Req: For this sequence, is measured apparent KD of K4 kissing-loop reporter 300 nM or higher? CGUGAAGACCAGAGGUGAUGUAUAGUAUCGCGAGGACCGGUACGGCCGCCACUCGUGAAGAGAAAGGAGUGAUGUUCCGUAAUGG [C12]
Resp: 1 (yes)

Req: For this sequence, is measured apparent KD of K4 kissing-loop reporter 300 nM or higher? CGACACUCAGCGGCCGCCACUGAGCUAUAUUUUGCAGGUGCCCGAGUAAGUGAUGUUUACUUCGUCAGGACCGGGCUGGUUUCAA [theeternabot_sameState_KL_Trp_B_20]
Resp: 1 (yes)

Req: For this sequence, is measured apparent KD of K4 kissing-loop reporter 300 nM or higher? AAGUGAUGUUGUAGUGAUGUUGUGAUGUUGCAGGAUAUAUAGUGAUGUAGAAGGGUAAGUACUUAUUUUUUUUUUGAGUGAUGUU [vcbczrmullin]
Resp: 0 (no)

Req: For this sequence, is measured apparent KD of K4 kissing-loop reporter 300 nM or higher? ACUUGAGCACAAAGCACACCAAGCAGUAGGUAGGAUAUCCGGCUUAGGAGAAGGACCAUGCAGUGAUGUUGCAUGCUCCUCCAUG [Onraordi]
Resp: 0 (no)

Req: For this sequence, is measured apparent KD of K4 kissing-loop reporter 300 nM or higher? UGUCAUUGGUCGGCCGCCACUUCAUGUAGAGUGAUGUUCUGUAGGACGGAUCGAAAGAUCUGUCGAAGGACCGGGACCGAUGACU [FiskerMod 14 - Jieux - Same State - Tryptophan B]
Resp: 1 (yes)

Req: For this sequence, is measured apparent KD of K4 kissing-loop reporter 300 nM or higher? UGUCAUUGGUCGGCCGCCACUAAAAUAAAAGAGUGAUGUUCUUAAAAGACGGACAAAGUCUGUCAUAGGACCGGGACCGAUGACU [TrypBS 23 #SwitchBubble #StaticStem]
Resp: 1 (yes)

Req: For this sequence, is measured apparent KD of K4 kissing-loop reporter 300 nM or higher? `GCCGUACGCAUGGAUACCAGCGCUCGUCACCUAGCAGUGAUGUUGCUAAUGCCACGAGGACGCCCUUGGCAGCCAUGCGUACGGC`
Resp: 0 (no)

====

Could you please report measured apparent KD of MS2 coat protein for the items listed next?
# Test system: MS2 coat protein
# assay_comment: apparent KD of MS2 coat protein; higher = weaker reporter binding
# condition_notes: Eterna round: R107; input ligand: none
All answers are understood in µM, so give the number only.

Req: Item under review: GCCUAGCAGCGAAGGAGCGAGGUAAAUAAAUAAAUAAAUAACAAGAGGAUCACCCUUGUUCCUCAGGUAGGUCGCGCUGCUAGGC [SSAB Alternative Aptamer #1 NP+V+V2] . Reported apparent KD of MS2 coat protein?
Resp: 0.0175

Req: Item under review: UCGCUCUGGGUGGGAUCCGGAGAUGUGGAAGGAGCGCUGGUUACAGCAGGUAGGUCGCCAACGGACAUGAGGAUCACCCAUGUAC [Same State - Arginine A (Freestyle 16)] . Reported apparent KD of MS2 coat protein?
Resp: 0.0413

Req: Item under review: GACCGAUUAUAGCGCGAUUGUCUUGUGGAAGGAGCGCAGAGGGCUGCAGGUAGGUCGCCACAUGAGGAUCACCCAUGUCAGGAUA [Ananvediri] . Reported apparent KD of MS2 coat protein?
Resp: 0.0202

Req: Item under review: AUUCAUAACUGAAGGAGCGUGAUAUAAAUUUUUACAUGAGGAUCACCCAUGUUUCAUAGAUCACAGGUAGGUCGCAGAUUCUCAU [JR_SSArginiB_Sub011] . Reported apparent KD of MS2 coat protein?
Resp: 0.0452

Req: Item under review: AUCCAUAGCCGAAGGAGCGCAGUAGGAUGACAUGAGGAUCACCCAUGUGUGUGAUGUGGAUUGCAGGUAGGUCGCGGAGUGGGUU [Exclusion - Arginine B (Freestyle 7)] . Reported apparent KD of MS2 coat protein?
Resp: 0.0652

====

# Tested on: K4 kissing-loop RNA reporter;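 further: bound reporter read as fluorescence of individual clusters on recovered sequencing chips by microscopy, with normalized cluster intensities fitted with a binding model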
# assay_comment: apparent KD of K4 kissing-loop reporter; higher = weaker reporter binding
# condition_notes: Eterna round: R107; input ligand: arginine 13.2 mM
Classes by apparent KD of K4 kissing-loop reporter: lower level: < 100 nM; middle level: ≥ 100 nM and < 300 nM; upper level: ≥ 300 nM

Req: Band for the recorded apparent KD of K4 kissing-loop reporter of CGGAGUGAUGUUCCGUUAAUUCCUUAGUUACGAGGACCGGUACGGCCGCCACUCGAUUUUAGUUUUAUUUAUUGUUUGGAAAUUU [JR_SSTryptoA_Sub008] ?
Resp: middle level

Req: Band for the recorded apparent KD of K4 kissing-loop reporter of AAUCAAUACAGAAGGAGCGUGACAAUUACUAUUGAAUUAGGUGCUAGUGAUGUUAGCAUUACACAGGUAGGUCGCUGUACAUUUA [JR_SSArginiB_Sub011] ?
Resp: lower level

Req: Band for the recorded apparent KD of K4 kissing-loop reporter of UUGUUUGGUUGAGAGGUUGGGCGAGAUGAUACCAGUAUAGAAGAGUACCCUUGGCAGCAUAGGAGAGAUAUAGUGAUGUUGUAUG [SSTheophA.T] ?
Resp: upper level

Req: Band for the recorded apparent KD of K4 kissing-loop reporter of GGAUCCACCAGUGAUGUUGGAGAAAACUCCAAGGAUAUGACGAAAGUCAGAAGGUGGUAGACUGGACAAAGUCCGGUCGGAUCCA [FmnA 23 #SwitchBubble #K4Early] ?
Resp: middle level

Req: Band for the recorded apparent KD of K4 kissing-loop reporter of AAUUCAAACUGAAGGAGCGAGCAAAUCGGAGUGAUGUUCCAAGCGAGUGAUGUUCGCAUAGCUCAGGUAGGUCGCAGUUUGGAUA [Same State Arginie B GF 13] ?
Resp: lower level

Req: Band for the recorded apparent KD of K4 kissing-loop reporter of AAGGGCUAGGCGGCCGCCACUUGUUGUGAACACAUACGAGCCAGUGAUGUUGGUAUUGUGUGCGGAAGGACCGGGCCUAGCCGAA [Exclusion - Tryptophan B (Freestyle 22)] ?
Resp: middle level

Req: Band for the recorded apparent KD of K4 kissing-loop reporter of UUAGAGAUCUCAGGAUAUCAGUGAUGUUGGUGUGCAGAUCUGAGAUAGAAUUCUAUCUCAGAUCAAUGAGAAGGGAGAUCUCAUU [AK5 Exc FMN B] ?
Resp: middle level

Req: Band for the recorded apparent KD of K4 kissing-loop reporter of ACUAGUUAAUCGGCCGCCACUUCUAGUGAUGUUAGAAUUAUCCAGAUUAUCAGCGUAGCACAUUGAAGGACCGGGAUAAGGUGGU [theeternabot_exclusion_KL_Trp_B_2] ?
Resp: middle level

Req: Band for the recorded apparent KD of K4 kissing-loop reporter of AACAUUUUCAGAAGGAGCGUGAAUUAUUCAUAAUUAUAUUAUACGAGUGAUGUUCGUAUUUCACAGGUAGGUCGCUGAUAUAUUA [JR_SSArginiB_Sub001] ?
Resp: middle level

Req: Band for the recorded apparent KD of K4 kissing-loop reporter of AAACGUUGGUCGGAUACCAGCUUGAUCGGAAAACGAUCUGCUGGAGUGAUGUUCCAAUAAAGCCCUUGGCAGCCGACCGACGAAA [MAT - Same State Theophlline B - Mod of Eli - D15] ?
Resp: upper level
